- assay_name: Octanol-water partition coefficient
- Assay type: physicochemical
- recorded_conditions: 177Lu-labelled; n-octanol/PBS pH 7.4; n=6
measured_metric: Log PO/W
Numbers only.

Exercise: Any idea what Log PO/W was measured for CC(C)(C)[Si](O)(c1ccc(C(=O)NC[C@@H](NC(=O)CC[C@@H](C(=O)O)N2CCN(CC(=O)O)CCN(CC(=O)O)CCN(CC(=O)O)CC2)C(=O)N[C@H](CO)C(=O)NCCC(=O)NCCC(=O)NCCC[C@@H](NC(=O)CC[C@H](NC(=O)N[C@@H](CCC(=O)O)C(=O)O)C(=O)O)C(=O)O)cc1)C(C)(C)C [C007-SiOH] ?
Key: −4.28

###

- Test system: LNCaP tumor-bearing CB17-SCID mice
- assay_name: Biodistribution studies 24 h p.i.
- Format: in vivo
- recorded_conditions: 177Lu-labelled, mean±SD, n=4-5
measured_metric: biodistribution: spleen

compound: CC(C)(C)[Si](O)(c1ccc(C(=O)NC[C@@H](NC(=O)CC[C@@H](C(=O)O)N2CCN(CC(=O)O)CCN(CC(=O)O)CCN(CC(=O)O)CC2)C(=O)N[C@H](CCCCNC(=O)CCC(=O)NCCC[C@@H](NC(=O)CC[C@H](NC(=O)N[C@@H](CCC(=O)O)C(=O)O)C(=O)O)C(=O)O)C(=O)O)cc1)C(C)(C)C
recorded_value: 0.21 ± 0.11 % ID/g

Here is the next item to consider.
Exercise: Any idea what biodistribution: spleen was measured for O=C(O)CC[C@H](NC(=O)N[C@@H](CCCCNC(=O)[C@H](Cc1ccc2ccccc2c1)NC(=O)[C@H]1CC[C@H](CNC(=O)CN2CCN(CC(=O)O)CCN(CC(=O)O)CCN(CC(=O)O)CC2)CC1)C(=O)O)C(=O)O [PSMA-617, reference compound] ?
Key: 0.08 ± 0.01 % ID/g

###

Please respond with reported biodistribution: spleen for every item in the list.
- System: LNCaP tumor-bearing CB17-SCID mice
- assay_name: Biodistribution studies 24 h p.i.
- Format: in vivo
- recorded_conditions: 177Lu-labelled, mean±SD, n=4-5
Numbers only, in % ID/g.

Use these answered entries as a reference point.
compound: O=C(O)CC[C@H](NC(=O)N[C@@H](CCCCNC(=O)CCCCCCC(=O)NCCCC[C@@H](NC(=O)[C@@H](Cc1ccccc1)NC(=O)[C@@H](Cc1ccc(O)c(I)c1)NC(=O)CCC(C(=O)O)N1CCN(CC(=O)O)CCN(CC(=O)O)CCN(CC(=O)O)CC1)C(=O)O)C(=O)O)C(=O)O (stereo partly drawn) [PSMA I&T, reference compound]
recorded_value: 1.94

compound: CC(C)(C)[Si](F)(c1ccc(C(=O)NC[C@@H](NC(=O)CN2CCN(CC(=O)O)CCN(CC(=O)O)CCN(CC(=O)O)CC2)C(=O)N[C@H](CCCCNC(=O)CCC(=O)NCCC[C@@H](NC(=O)CC[C@H](NC(=O)N[C@@H](CCC(=O)O)C(=O)O)C(=O)O)C(=O)O)C(=O)O)cc1)C(C)(C)C [rhPSMA-10, reference compound]
recorded_value: 0.22

Here is the next item to consider.
Exercise: Any idea what biodistribution: spleen was measured for CC(C)(C)[Si](O)(c1ccc(C(=O)NC[C@@H](NC(=O)CC[C@@H](C(=O)O)N2CCN(CC(=O)O)CCN(CC(=O)O)CCN(CC(=O)O)CC2)C(=O)NCC(=O)N[C@@H](CCCCNC(=O)CCC(=O)NCCC[C@@H](NC(=O)CC[C@H](NC(=O)N[C@@H](CCC(=O)O)C(=O)O)C(=O)O)C(=O)O)C(=O)O)cc1)C(C)(C)C ?
Key: 0.13

###

- Tested on: LNCaP cells
- assay_name: Internalization studies on LNCaP cells
- Type: cell-based
- recorded_conditions: 177Lu-labelled, c=1.0 nM, 1 hour, 37 °C; % of reference ligand ([125I]I-BA)KuE (c=0.2 nM); corrected for non-specific binding (PMPA); mean±SD, n=3-6
Binary call on Internalization (% IBA): satisfied from 200 % IBA upward, not satisfied beneath that.

Before answering, review these 5 worked examples.
compound: CC(C)(C)[Si](F)(c1ccc(C(=O)NC[C@@H](NC(=O)CC[C@@H](C(=O)O)N2CCN(CC(=O)O)CCN(CC(=O)O)CCN(CC(=O)O)CC2)C(=O)N[C@H](CCCCNC(=O)CCC(=O)NCCC[C@@H](NC(=O)CC[C@H](NC(=O)N[C@@H](CCC(=O)O)C(=O)O)C(=O)O)C(=O)O)C(=O)O)cc1)C(C)(C)C [rhPSMA-7.3, reference compound]
assigned_label: not satisfied
//
compound: CC(C)(C)[Si](O)(c1ccc(C[N+](C)(C)CC(=O)NCCC[C@@H](NC(=O)CC[C@@H](C(=O)O)N2CCN(CC(=O)O)CCN(CC(=O)O)CCN(CC(=O)O)CC2)C(=O)NCCCCCC(=O)NCCC[C@@H](NC(=O)CC[C@H](NC(=O)N[C@@H](CCC(=O)O)C(=O)O)C(=O)O)C(=O)O)cc1)C(C)(C)C
assigned_label: not satisfied
//
compound: O=C(O)CC[C@H](NC(=O)N[C@@H](CCCCNC(=O)CCCCCCC(=O)NCCCC[C@@H](NC(=O)[C@@H](Cc1ccccc1)NC(=O)[C@@H](Cc1ccc(O)c(I)c1)NC(=O)CCC(C(=O)O)N1CCN(CC(=O)O)CCN(CC(=O)O)CCN(CC(=O)O)CC1)C(=O)O)C(=O)O)C(=O)O (stereo partly shown) [PSMA I&T, reference compound]
assigned_label: not satisfied
//
compound: CC(C)(C)[Si](F)(c1ccc(C(=O)NC[C@@H](NC(=O)CN2CCN(CC(=O)O)CCN(CC(=O)O)CCN(CC(=O)O)CC2)C(=O)N[C@H](CCCCNC(=O)CCC(=O)NCCC[C@@H](NC(=O)CC[C@H](NC(=O)N[C@@H](CCC(=O)O)C(=O)O)C(=O)O)C(=O)O)C(=O)O)cc1)C(C)(C)C [rhPSMA-10, reference compound]
assigned_label: satisfied
//
compound: O=C(O)CC[C@H](NC(=O)N[C@@H](CCCCNC(=O)[C@H](Cc1ccc2ccccc2c1)NC(=O)[C@H]1CC[C@H](CNC(=O)CN2CCN(CC(=O)O)CCN(CC(=O)O)CCN(CC(=O)O)CC2)CC1)C(=O)O)C(=O)O [PSMA-617, reference compound]
assigned_label: not satisfied

Exercise: Evaluate CC(C)(C)[Si](O)(c1ccc(C(=O)NC[C@@H](NC(=O)CC[C@@H](C(=O)O)N2CCN(CC(=O)O)CCN(CC(=O)O)CCN(CC(=O)O)CC2)C(=O)N[C@H](CCCCNC(=O)CCC(=O)NCCC[C@@H](NC(=O)CC[C@H](NC(=O)N[C@@H](CCC(=O)O)C(=O)O)C(=O)O)C(=O)O)C(=O)O)cc1)C(C)(C)C : Internalization (% IBA) at minimum 200 % IBA?
Key: satisfied

Exercise: Next compound: CC(C)(C)[Si](O)(c1ccc(C(=O)N[C@H](CCC(=O)NC[C@@H](NC(=O)CC[C@@H](C(=O)O)N2CCN(CC(=O)O)CCN(CC(=O)O)CCN(CC(=O)O)CC2)C(=O)NCCCCCC(=O)NCCC[C@@H](NC(=O)CC[C@H](NC(=O)N[C@@H](CCC(=O)O)C(=O)O)C(=O)O)C(=O)O)C(=O)O)cc1)C(C)(C)C
Key: not satisfied

Exercise: Next compound: CC(C)(C)[Si](O)(c1ccc(C(=O)NC[C@@H](NC(=O)CC[C@@H](C(=O)O)N2CCN(CC(=O)O)CCN(CC(=O)O)CCN(CC(=O)O)CC2)C(=O)N[C@H](CO)C(=O)NCCC(=O)NCCC(=O)NCCC[C@@H](NC(=O)CC[C@H](NC(=O)N[C@@H](CCC(=O)O)C(=O)O)C(=O)O)C(=O)O)cc1)C(C)(C)C
Key: not satisfied

Exercise: Next compound: CC(C)(C)[Si](O)(c1ccc(C(=O)NC[C@@H](NC(=O)CCCCCNC(=O)CCCNC(=O)CC[C@@H](NC(=O)CCC(NC(=O)N[C@@H](CCC(=O)O)C(=O)O)C(=O)O)C(=O)O)C(=O)NCC(=O)N[C@@H](CCCCNC(=O)CC[C@@H](C(=O)O)N2CCN(CC(=O)O)CCN(CC(=O)O)CCN(CC(=O)O)CC2)C(=O)O)cc1)C(C)(C)C (stereo partly shown)
Key: not satisfied

###

- Tested on: LNCaP tumor-bearing CB17-SCID mice
- assay_name: Biodistribution studies 24 h p.i.
- Format: in vivo
- recorded_conditions: 177Lu-labelled, mean±SD, n=4-5
measured_metric: biodistribution: lung (% ID/g)
Give bare numbers, in % ID/g.

Use these answered entries as a reference point.
compound: CC(C)(C)[Si](O)(c1ccc(C(=O)NC[C@@H](NC(=O)CC[C@@H](C(=O)O)N2CCN(CC(=O)O)CCN(CC(=O)O)CCN(CC(=O)O)CC2)C(=O)N[C@H](CO)C(=O)NCCC(=O)NCCC(=O)NCCC[C@@H](NC(=O)CC[C@H](NC(=O)N[C@@H](CCC(=O)O)C(=O)O)C(=O)O)C(=O)O)cc1)C(C)(C)C
uom: % ID/g
recorded_value: 0.04
--
compound: O=C(O)CC[C@H](NC(=O)N[C@@H](CCCCNC(=O)[C@H](Cc1ccc2ccccc2c1)NC(=O)[C@H]1CC[C@H](CNC(=O)CN2CCN(CC(=O)O)CCN(CC(=O)O)CCN(CC(=O)O)CC2)CC1)C(=O)O)C(=O)O [PSMA-617, reference compound]
uom: % ID/g
recorded_value: 0.04

Exercise: Any idea what biodistribution: lung was measured for O=C(O)CC[C@H](NC(=O)N[C@@H](CCCCNC(=O)CCCCCCC(=O)NCCCC[C@@H](NC(=O)[C@@H](Cc1ccccc1)NC(=O)[C@@H](Cc1ccc(O)c(I)c1)NC(=O)CCC(C(=O)O)N1CCN(CC(=O)O)CCN(CC(=O)O)CCN(CC(=O)O)CC1)C(=O)O)C(=O)O)C(=O)O (stereo partly drawn) [PSMA I&T, reference compound] ?
Key: 0.16
